# Tested on: BCBL-1 cells
# Protocol Details: RNA-Sequencing of compound-treated vs vehicle-treated cells
# Format: cell-based, human
# Assay Conditions: gene expression, treated vs vehicle BCBL-1 cells
Metric: Ratio, IFNG
Response field accepts a number only; no unit should be typed.

Request: Sample Cc1sc2c(c1C)C(c1ccc(Cl)cc1)=N[C@@H](CC(=O)O[C@H](C)c1ccc(C(=O)Nc3ccccc3N)cc1)c1nnc(C)n1-2 — what was its Ratio, IFNG?
Response: 0.1678

Request: Sample Cc1sc2c(c1C)C(c1ccc(Cl)cc1)=N[C@@H](CC(=O)O[C@@H](C)c1ccc(C(=O)Nc3ccccc3N)cc1)c1nnc(C)n1-2 — what was its Ratio, IFNG?
Response: 0.1337

Request: Sample O=C(CCCCCCC(=O)Nc1ccccc1)NO [SAHA, suberoylanilide hydroxamic acid, reference compound] — what was its Ratio, IFNG?
Response: 0.312

Request: Sample Cc1sc2c(c1C)C(c1ccc(Cl)cc1)=N[C@@H](CC(=O)OC(C)(C)C)c1nnc(C)n1-2 [(+)-JQ1, reference compound] — what was its Ratio, IFNG?
Response: 0.1251

Data credit: paper PMC9879403
